experimental_system: Mitogen-activated protein kinase 9 (Homo sapiens, UniProt P45984)
Sequence (P45984 whole entry): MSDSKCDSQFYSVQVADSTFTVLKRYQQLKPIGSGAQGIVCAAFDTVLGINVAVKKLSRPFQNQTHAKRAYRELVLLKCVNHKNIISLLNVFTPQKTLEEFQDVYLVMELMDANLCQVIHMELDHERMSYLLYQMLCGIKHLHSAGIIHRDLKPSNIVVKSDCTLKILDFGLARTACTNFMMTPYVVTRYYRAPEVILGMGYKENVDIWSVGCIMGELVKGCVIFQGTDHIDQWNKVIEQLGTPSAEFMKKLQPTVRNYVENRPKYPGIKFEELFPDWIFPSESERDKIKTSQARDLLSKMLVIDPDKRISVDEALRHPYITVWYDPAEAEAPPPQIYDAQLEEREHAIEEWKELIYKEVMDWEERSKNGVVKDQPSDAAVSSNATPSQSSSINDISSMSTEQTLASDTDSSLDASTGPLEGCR
experiment_summary: Inhibition of recombinant JNK2 after 60 mins by TR-FRET assay
measurement_label: IC50 (nM)
Field format: number, assumed nM, no unit text.

Use these answered entries as a reference point.
* COC(=O)N1CCC(n2nc(-c3ccnc(NC4CCOCC4)c3)n(-c3ccc4ccccc4c3)c2=O)CC1 | 58
* CC(=O)Nc1cc(-c2n[nH]c(=O)n2-c2ccc3ccccc3c2)ccn1 | 1500

Fill blank: measured IC50 of the compound "O=c1[nH]nc(-c2ccnc(NC3CCOCC3)c2)n1-c1ccc2ccccc2c1" is ____.
250

What does the record list as IC50 for "O=c1n(CC2CCOCC2)nc(-c2ccnc(NC3CCCCC3)c2)n1-c1ccc2ccccc2c1" ?
61

Can you share its IC50? I mean this compound: "O=c1n(Cc2ccncc2)nc(-c2ccnc(NC3CCCCC3)c2)n1-c1ccc2ccccc2c1"
97
